Parameter: IC50. Scope: all listed entries.
targetOrTestSystem: CDK9/CycT (Homo sapiens (Human), UniProt P50750)
Sequence (P50750 whole entry): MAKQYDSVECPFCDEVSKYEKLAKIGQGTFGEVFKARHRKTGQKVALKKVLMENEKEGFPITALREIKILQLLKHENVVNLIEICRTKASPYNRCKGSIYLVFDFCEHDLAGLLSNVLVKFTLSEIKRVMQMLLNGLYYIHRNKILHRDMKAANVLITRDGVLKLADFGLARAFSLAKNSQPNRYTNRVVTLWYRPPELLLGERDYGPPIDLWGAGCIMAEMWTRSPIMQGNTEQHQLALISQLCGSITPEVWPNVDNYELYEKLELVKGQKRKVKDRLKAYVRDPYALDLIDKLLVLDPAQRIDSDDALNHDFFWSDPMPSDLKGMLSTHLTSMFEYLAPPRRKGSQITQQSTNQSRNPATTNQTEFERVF
Sequence (O60563 whole entry partner): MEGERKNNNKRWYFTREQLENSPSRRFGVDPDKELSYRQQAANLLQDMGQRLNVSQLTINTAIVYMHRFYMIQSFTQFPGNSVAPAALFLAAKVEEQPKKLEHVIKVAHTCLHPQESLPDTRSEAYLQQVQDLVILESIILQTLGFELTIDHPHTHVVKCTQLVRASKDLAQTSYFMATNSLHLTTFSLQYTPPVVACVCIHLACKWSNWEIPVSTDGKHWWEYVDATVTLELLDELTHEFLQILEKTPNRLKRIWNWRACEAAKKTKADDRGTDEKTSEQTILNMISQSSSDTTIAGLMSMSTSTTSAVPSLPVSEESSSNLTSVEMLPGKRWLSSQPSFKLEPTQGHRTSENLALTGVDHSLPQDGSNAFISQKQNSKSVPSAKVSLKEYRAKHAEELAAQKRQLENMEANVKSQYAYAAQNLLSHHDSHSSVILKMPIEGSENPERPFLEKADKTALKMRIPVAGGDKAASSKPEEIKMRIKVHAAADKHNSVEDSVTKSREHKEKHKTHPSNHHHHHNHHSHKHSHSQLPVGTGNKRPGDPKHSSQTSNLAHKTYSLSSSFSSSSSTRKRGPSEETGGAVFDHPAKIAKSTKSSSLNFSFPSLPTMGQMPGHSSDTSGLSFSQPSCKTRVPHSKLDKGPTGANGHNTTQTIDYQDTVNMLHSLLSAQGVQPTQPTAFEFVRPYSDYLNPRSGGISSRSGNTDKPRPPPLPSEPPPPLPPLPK
procedureDetails: LANCE Ultra kinase activity inhibition assay, CDK9/CycT
Assay type: biochemical
testParameters: ATP 10 μM, highest compound concentration 1 μM

{"compound": "CC(c1cc(NC2CCNC2)n2ncc(F)c2n1)C1CC1 (centres unmarked) [Compound Z-31]", "IC50": "0.104 µM"}
{"compound": "CC(C)(c1cc(N[C@H]2CC[C@H](N)C2)n2ncc(Cl)c2n1)C1CCC1 [Compound Z-46]", "IC50": "0.01 µM"}
{"compound": "C[C@H](c1cc(N[C@H]2CC[C@H](N)C2)n2nccc2n1)C1(C)CC1 [Compound Z-27-P2]", "IC50": "0.008 µM"}
{"compound": "CC(c1cc(NC2CCN(N)C2)n2ncc(Cl)c2n1)C1CC1 (centres unmarked) [Compound Z-48]", "IC50": "0.068 µM"}
{"compound": "N[C@H]1CC[C@H](Nc2cc(C(C3CC3)C3CC3)nc3c(C4CC4)cnn23)C1 [Compound Z-14]", "IC50": "0.042 µM"}

Origin of measurements: patent US20240109898A1
